test: Plasma concentration versus time of Compound I and metabolite Compound III in patients dosed QD or BID with Form B of Compound II plus fulvestrant; format: in vivo, human; conditions: human, plasma, oral, 500 mg, Cohort 4, 500 mg QD of Form B, Day 8; read-out: Trough Compound III Concentration, Min
readout: concentration at 8 day (ng/mL)
Report the figure in ng/mL without appending any unit label.

Problem: Need concentration at 8 day of O=C1NCC2(CCCCC2)n2c1cc1cnc(Nc3ccc(N4CCNCC4)cn3)nc12 [Compound III] , thanks.
Result: 1.53

* * *

assay: Plasma concentration versus time of Compound I and metabolite Compound III in patients dosed QD or BID with Form B of Compound II plus fulvestrant; type: in vivo, human; conditions: human, plasma, oral, 200 mg, 200 mg QD of Form B, Day 29, […], Median; read-out: Compound I Concentration
readout: concentration at 24 h
Answer with the number, then the unit.

Problem: // concentration at 24 h lookup, key: CC(C)N1CCN(c2ccc(Nc3ncc4cc5n(c4n3)C3(CCCCC3)CNC5=O)nc2)CC1 [Compound I]
Result: 4.9 ng/mL

* * *

assay: Plasma concentration versus time of Compound I and metabolite Compound III in patients dosed QD or BID with Form B of Compound II plus fulvestrant; type: in vivo, human; settings: human, plasma, oral, 100 mg, Cohort 6, 100 mg BID of Form B, Day 22; read-out: Trough Compound I Concentration, Min
readout: concentration at 22 day (ng/mL)
API: value field is a number in ng/mL; no unit string.

Problem: I have this compound here, CC(C)N1CCN(c2ccc(Nc3ncc4cc5n(c4n3)C3(CCCCC3)CNC5=O)nc2)CC1 , and I need its recorded concentration at 22 day.
Result: 2.34

* * *

test: Plasma concentration versus time of Compound I and metabolite Compound III in patients dosed QD or BID with Form B of Compound II plus fulvestrant; format: in vivo, human; details: human, plasma, oral, 650 mg, Cohort 5, 650 mg QD of Form B, Day 29, […]; read-out: Compound III Concentration, Min
readout: concentration at 24 h (ng/mL)
Numeric answer only, unit ng/mL assumed.

Problem: Reported concentration at 24 h for O=C1NCC2(CCCCC2)n2c1cc1cnc(Nc3ccc(N4CCNCC4)cn3)nc12 : what is it?
Result: 2.49

* * *

assay: Noncompartmental pharmacokinetic parameters (Cmax, Tmax, AUC, Racc) in QD and BID cohorts of Form B; format: in vivo, human; conditions: human, plasma, oral, 500 mg, Compound I; 500 mg QD of Form B; Cohort 4; Day 29; read-out: Cmax (Median)
readout: Cmax (ng/mL)
Dear colleague, please return just the value in ng/mL, with no unit written.

Problem: State the recorded Cmax for this entry: CC(C)N1CCN(c2ccc(Nc3ncc4cc5n(c4n3)C3(CCCCC3)CNC5=O)nc2)CC1
Result: 45

* * *

assay: Noncompartmental pharmacokinetic parameters (Cmax, Tmax, AUC, Racc) in QD and BID cohorts of Form B; type: in vivo, human; conditions: human, plasma, oral, 400 mg, Compound III; 400 mg QD of Form B; Cohort 3; Day 29; read-out: Cmax (Median)
readout: Cmax (ng/mL)
Answer with a number only, understood to be in ng/mL.

Problem: Which value of Cmax has been reported for O=C1NCC2(CCCCC2)n2c1cc1cnc(Nc3ccc(N4CCNCC4)cn3)nc12 in the records?
Result: 3.4

* * *

experiment: Noncompartmental pharmacokinetic parameters (Cmax, Tmax, AUC, Racc) in QD and BID cohorts of Form B; assay type: in vivo, human; details: human, plasma, oral, 100 mg, Compound III; 100 mg BID of Form B; Cohort 6; Day 1; read-out: Cmax (Median)
readout: Cmax (ng/mL)
Write it as a number; the unit ng/mL goes unstated.

Problem: Could you share which Cmax value was measured for O=C1NCC2(CCCCC2)n2c1cc1cnc(Nc3ccc(N4CCNCC4)cn3)nc12 [Compound III] ?
Result: 1.6

* * *

test: Noncompartmental pharmacokinetic parameters (Cmax, Tmax, AUC, Racc) in QD and BID cohorts of Form B; type: in vivo, human; details: human, plasma, oral, 400 mg, Cohort 3, 400 mg QD of Form B, Day 1; read-out: Tmax, Mean
readout: Tmax (h)
Field: numeric (h). Do not append units.

Problem: Field request: Tmax | item: CC(C)N1CCN(c2ccc(Nc3ncc4cc5n(c4n3)C3(CCCCC3)CNC5=O)nc2)CC1
Result: 6

* * *

assay: Noncompartmental pharmacokinetic parameters (Cmax, Tmax, AUC, Racc) in QD and BID cohorts of Form B; type: in vivo, human; settings: human, plasma, oral, 150 mg, Compound III; 150 mg BID of Form B; Cohort 7; Day 1; read-out: Cmax (Median)
readout: Cmax (ng/mL)
Give just the numeric value; ng/mL need not be written.

Problem: Which Cmax value belongs to O=C1NCC2(CCCCC2)n2c1cc1cnc(Nc3ccc(N4CCNCC4)cn3)nc12 [Compound III] ?
Result: 3

* * *

assay: Pharmacokinetics of Compound I in healthy volunteers after a single dose of Form B of Compound II; assay type: in vivo, human; details: human, plasma, oral, single 600 mg dose of Form B of Compound II
readout: Tmax (h)
Give just the number in h; leave the unit off.

Problem: Recorded Tmax of CC(C)N1CCN(c2ccc(Nc3ncc4cc5n(c4n3)C3(CCCCC3)CNC5=O)nc2)CC1 [Compound I] , please.
Result: 6

* * *

test: Plasma concentration versus time of Compound I and metabolite Compound III in patients dosed QD or BID with Form B of Compound II plus fulvestrant; format: in vivo, human; settings: human, plasma, oral, 650 mg, Cohort 5, 650 mg QD of Form B, Day 8; read-out: Trough Compound III Concentration, Min
readout: concentration at 8 day
Your reply should be a number followed by the unit it is expressed in.

Problem: Give the measured concentration at 8 day of O=C1NCC2(CCCCC2)n2c1cc1cnc(Nc3ccc(N4CCNCC4)cn3)nc12 .
Result: 1.65 ng/mL

* * *

assay: Plasma concentration versus time of Compound I and metabolite Compound III in patients dosed QD or BID with Form B of Compound II plus fulvestrant; format: in vivo, human; settings: human, plasma, oral, 150 mg, Cohort 7, 150 mg BID of Form B, Day 29, 0.0 h; read-out: Compound I Concentration, Median
readout: concentration at 0 h (ng/mL)
Give the value, in units of ng/mL, as a plain number.

Problem: Return reported concentration at 0 h; argument: CC(C)N1CCN(c2ccc(Nc3ncc4cc5n(c4n3)C3(CCCCC3)CNC5=O)nc2)CC1
Result: 18.5

* * *

test: Plasma concentration versus time of Compound I and metabolite Compound III in patients dosed QD or BID with Form B of Compound II plus fulvestrant; assay type: in vivo, human; conditions: human, plasma, oral, 500 mg, Cohort 4, 500 mg QD of Form B, Day 15; read-out: Trough Compound III Concentration, Min
readout: concentration at 15 day (ng/mL)
Only the number, expressed in ng/mL, is required.

Problem: Which concentration at 15 day value is on record for O=C1NCC2(CCCCC2)n2c1cc1cnc(Nc3ccc(N4CCNCC4)cn3)nc12 ?
Result: 1.33

* * *

test: Steady-state AUC0-24,ss, (AUC0-24,ss)/dose, half-life and time to steady state: Compound I versus palbociclib, ribociclib, abemaciclib; type: in vivo, human; settings: human, plasma, oral; 200 mg QD of Form B of Compound II, Day 29; read-out: Mean AUC0-24,ss
readout: AUC(0-t) (ng·h/mL)
# output: bare number, implied unit ng·h/mL

Problem: Which value of AUC(0-t) has been reported for CC(C)N1CCN(c2ccc(Nc3ncc4cc5n(c4n3)C3(CCCCC3)CNC5=O)nc2)CC1 [Compound I] in the records?
Result: 229

* * *

test: Plasma concentration versus time of Compound I and metabolite Compound III in patients dosed QD or BID with Form B of Compound II plus fulvestrant; format: in vivo, human; settings: human, plasma, oral, 100 mg, Cohort 6, 100 mg BID of Form B, Day 29, 6.0 h; read-out: Compound I Concentration, Median
readout: concentration at 6 h (ng/mL)
Please state the figure in ng/mL; there is no need to write the unit.

Problem: Which value of concentration at 6 h has been reported for CC(C)N1CCN(c2ccc(Nc3ncc4cc5n(c4n3)C3(CCCCC3)CNC5=O)nc2)CC1 [Compound I] in the records?
Result: 8.11

* * *

assay: Noncompartmental pharmacokinetic parameters (Cmax, Tmax, AUC, Racc) in QD and BID cohorts of Form B; format: in vivo, human; conditions: human, plasma, oral, 100 mg, Cohort 6, 100 mg BID of Form B, Day 1; read-out: AUClast, Median
readout: AUC(0-t) (ng·h/mL)
The response must be a number in ng·h/mL with no trailing unit.

Problem: Look at this compound and give its reported AUC(0-t). CC(C)N1CCN(c2ccc(Nc3ncc4cc5n(c4n3)C3(CCCCC3)CNC5=O)nc2)CC1
Result: 53.1

Origin of measurements: patent US11357779B2
